These measurements were taken from patent US12624019B2.

- TARGET OF ASSAY: IRAK4 kinase protein in THP-1 cells (Homo sapiens, UniProt Q9NWZ3)
- Construct: endogenous in cells; host or cells: THP-1 cells
- Sequence (Q9NWZ3 whole entry): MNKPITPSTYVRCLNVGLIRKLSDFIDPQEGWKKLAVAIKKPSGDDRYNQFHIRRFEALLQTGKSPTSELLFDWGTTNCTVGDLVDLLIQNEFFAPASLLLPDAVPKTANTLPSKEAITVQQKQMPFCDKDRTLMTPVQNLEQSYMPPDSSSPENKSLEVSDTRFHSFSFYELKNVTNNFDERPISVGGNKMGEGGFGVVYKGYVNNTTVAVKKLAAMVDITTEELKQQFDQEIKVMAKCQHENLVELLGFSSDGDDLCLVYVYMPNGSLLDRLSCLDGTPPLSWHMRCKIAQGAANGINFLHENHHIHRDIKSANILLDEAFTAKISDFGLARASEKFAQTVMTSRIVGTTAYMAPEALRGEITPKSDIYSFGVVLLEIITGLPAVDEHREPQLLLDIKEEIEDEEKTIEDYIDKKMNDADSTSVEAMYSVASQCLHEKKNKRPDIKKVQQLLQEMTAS
- TEST PROTOCOL: Degradation of IRAK4 in THP-1 cells by Western Blot
- Assay type: cell-based
- TEST SETTINGS: IRAK4 degradation in THP-1 cells, 24 hours; read-out: WB DC50
READOUT: DC50 (nM)

Solved entries (count: 5):
COMPOUND: COc1cc2nn(C3CCN(CC4CCN(c5ccc6c(c5)C(=O)N(C5CCC(=O)NC5=O)C6=O)CC4)CC3)cc2cc1NC(=O)c1cccc(C(F)(F)F)n1 (stereo not drawn) [Example 2]
DC50, nM: 15.7
//
COMPOUND: CC(C)(O)c1cc2nn(C3CCN(CCC4CCC5(CC4)CCN(c4ccc6c(c4)C(=O)N(C4CCC(=O)NC4=O)C6=O)CC5)CC3)cc2cc1NC(=O)c1cccc(C(F)(F)F)n1 (stereo not drawn) [Example 12]
DC50, nM: 18.3
//
COMPOUND: CC(C)(O)c1cc2nn(C3CCN(CC(C)(C)N4CCN(c5ccc6c(c5)C(=O)N(C5CCC(=O)NC5=O)C6=O)CC4)CC3)cc2cc1NC(=O)c1cccc(C(F)(F)F)n1 (stereo not drawn) [Example 9]
DC50, nM: 12.5
//
COMPOUND: CC(C)(O)c1cc2nn(C3CCN(CCCC4CCN(c5ccc6c(c5)C(=O)N(C5CCC(=O)NC5=O)C6=O)CC4)CC3)cc2cc1NC(=O)c1cccc(C(F)(F)F)n1 (stereo not drawn) [Example 6]
DC50, nM: 11.9
//
COMPOUND: COc1cc2nn(C3CCN(CCN4CCN(c5ccc6c(c5)C(=O)N(C5CCC(=O)NC5=O)C6=O)CC4)CC3)cc2cc1NC(=O)c1cccc(C(F)(F)F)n1 (stereo not drawn) [Example 3]
DC50, nM: 9.3

[1] CC(C)(O)c1cc2nn(C3CCN(CC4CCN(c5ccc6c(c5)C(=O)N(C5CCC(=O)NC5=O)C6=O)CC4)CC3)cc2cc1NC(=O)c1cccc(C(F)(F)F)n1 (stereo not drawn) [Example 7]
[2] CC(C)(O)c1cc2nn(C3CCN(CCN4CCN(c5ccc6c(c5)C(=O)N(C5CCC(=O)NC5=O)C6=O)CC4)CC3)cc2cc1NC(=O)c1cccc(C(F)(F)F)n1 (stereo not drawn) [Example 4]
[3] COc1cc2nn(C3CCN(CCC4CCN(c5ccc6c(c5)C(=O)N(C5CCC(=O)NC5=O)C6=O)CC4)CC3)cc2cc1NC(=O)c1cccc(C(F)(F)F)n1 (stereo not drawn) [Example 1]
[in] Provide the items ranked by increasing DC50. List the labels according to the requested ordering.
[out] 2, 1, 3

----------
- TEST PROTOCOL: Pharmacokinetic study in mice
- Assay type: in vivo, SD mice
- TEST SETTINGS: intravenous injection 1 mg/kg
READOUT: CL_pred (mL/min/kg)

MOLECULE: CC(C)(O)c1cc2nn(C3CCN(CCCC4CCN(c5ccc6c(c5)C(=O)N(C5CCC(=O)NC5=O)C6=O)CC4)CC3)cc2cc1NC(=O)c1cccc(C(F)(F)F)n1 (stereo not shown) [Example 6]
CL_pred, mL/min/kg: 6.7

[I] CC(C)(O)c1cc2nn(C3CCN(CC4CCN(c5ccc6c(c5)C(=O)N(C5CCC(=O)NC5=O)C6=O)CC4)CC3)cc2cc1NC(=O)c1cccc(C(F)(F)F)n1 (stereo not shown) [Example 7]
[II] COc1cc2nn(C3CCN(CC4CCN(CCOc5ccc6c(c5)C(=O)N(C5CCC(=O)NC5=O)C6=O)CC4)CC3)cc2cc1NC(=O)c1cccc(C(F)(F)F)n1 (stereo not shown) [Control group 2, reference compound]
[III] COc1cc2nn(C3CCN(CC4CCN(c5ccc6c(c5)C(=O)N(C5CCC(=O)NC5=O)C6=O)CC4)CC3)cc2cc1NC(=O)c1cccc(C(F)(F)F)n1 (stereo not shown) [Example 2]
[in] Provide the items ranked by increasing CL_pred. List the labels according to the requested ordering.
[out] I, III, II
(I: 5 mL/min/kg, III: 8.3 mL/min/kg, II: 91.7 mL/min/kg)
